- Run description: Surface tension of water containing nonionic organic compound
- Format: physicochemical
- Conditions: 25° C.
Readout: surface tension of water containing 0.001% by weight of the nonionic organic compound (mN/m)

{"Compound": "CC(C)CCCCCCCOCC(O)CO (centres unmarked) [Isodecyl monoglyceryl ether]", "Value": 57.8}
{"Compound": "CCCCCCCCC(O)CO (centres unmarked) [1,2-decanediol]", "Value": 55}
{"Compound": "CCCCC(CC)COCC(O)CO (centres unmarked) [2-ethylhexyl monoglyceryl ether]", "Value": 62}
{"Compound": "CCCCCCCCCCC(O)CO (centres unmarked) [1,2-dodecanediol]", "Value": 47.1}
{"Compound": "CCCCCCC(O)CO (centres unmarked) [1,2-octanediol]", "Value": 65}

###

- Run description: Solubility of nonionic organic compound in water
- Type: physicochemical
- Conditions: 25° C.
Readout: solubility in 100 g of water (g)

Known results for molecules:
{"Molecule": "CC(C)CCCCCCCOCC(O)CO (centres unmarked)", "solubility in 100 g of water, g": 0.05}
{"Molecule": "CCCCCCC(O)CO (centres unmarked)", "solubility in 100 g of water, g": 0.20}

[1] CCCCCCCCC(O)CO (centres unmarked)
[2] CCCCC(CC)COCC(O)CO (centres unmarked)
[3] CCCCCCCCCCC(O)CO (centres unmarked)
Order the 3 molecules from highest to lowest solubility in 100 g of water. Order the labels as requested and list them.
2, 1, 3
(2: 0.15 g, 1: 0.055 g, 3: 0.001 g)

###

- Run description: Solubility of nonionic organic compound in water
- Assay type: physicochemical
- Conditions: in 100 g of water at 25° C.
Readout: Solubility (g/100 g)

Known results for molecules:
{"Molecule": "CCCCCCCCCCC(O)CO (stereo not shown)", "Solubility / g/100 g": 0.001}
{"Molecule": "CCCCC(CC)COCC(O)CO (stereo not shown)", "Solubility / g/100 g": 0.15}
{"Molecule": "OCCCCCCCCO [1,8-octanediol, reference compound]", "Solubility / g/100 g": 1}
{"Molecule": "CCCCCCCCC(O)CO (stereo not shown)", "Solubility / g/100 g": 0.055}

[1] CC(C)CCCCCCCOCC(O)CO (stereo not shown)
[2] CCCCCCC(O)CO (stereo not shown)
Among 1 and 2 , whose measured Solubility is the smaller figure? # reply format: chosen label
1
(1: 0.05 g/100 g, 2: 0.2 g/100 g)

###

- Run description: Surface tension of water containing nonionic organic compound
- Assay type: physicochemical
- Conditions: water containing 0.001% by weight of the nonionic organic compound, 25° C.
Readout: Surface tension (mN/m)

{"Compound": "CCCCC(O)CO (stereo not shown) [1,2-hexanediol, reference compound]", "Value": 71.2}
{"Compound": "CCCCCCCCC(O)CO (stereo not shown) [1,2-decanediol]", "Value": 55}
{"Compound": "CCCCC(CC)COCC(O)CO (stereo not shown) [2-ethylhexyl monoglyceryl ether]", "Value": 62}
{"Compound": "CC(C)CCCCCCCOCC(O)CO (stereo not shown) [Isodecyl monoglyceryl ether]", "Value": 57.8}
{"Compound": "CCCCCCCCCCC(O)CO (stereo not shown) [1,2-dodecanediol]", "Value": 47.1}
{"Compound": "OCCCCCCCCO [1,8-octanediol, reference compound]", "Value": 70.7}
{"Compound": "CCCCCCC(O)CO (stereo not shown) [1,2-octanediol]", "Value": 65}

Ref: patent US8013053B2
